The measurements presented in this section are drawn from ChEMBL document CHEMBL1122419.

biological target: Adrenergic receptor alpha-1 (Rattus norvegicus, UniProt P15823+P23944+P43140); test: Agonist activity against alpha-1 adrenergic receptor from rat vas deferens; format: functional
Measured EC50, listed per entry.

Compound Structure String	EC50
Cc1ccc(NCC2=NCCN2)cc1	0.34 µM
Oc1cccc(NCC2=NCCN2)c1	0.061 µM
Cc1ccc(N(CC2=NCCN2)c2ccccc2)cc1	> 1 µM
Cc1ccc(N(C)CC2=NCCN2)cc1	0.3 µM
Clc1ccccc1NCC1=NCCN1	0.05 µM
Cc1ccc(N(CC2=NCCN2)C2CCCCC2)cc1	> 1 µM
CCN(CC1=NCCN1)c1ccc(C)cc1	1.6 µM

###

target: Adrenergic receptor alpha-2 (Rattus norvegicus) (UniProt P22086+P19328+P22909); assay: Clonidine antagonistic activity against alpha-2 adrenergic receptor in isolated, field -simulated vas deferens from rats; assay type: functional
Measured pA2, listed per entry for reference.

Compound Structure String	Assayed System	pA2
CCN(CC1=NCCN1)c1ccc(C)cc1	Adrenergic receptor alpha-2 (Rattus norvegicus) (UniProt P22086+P19328+P22909)	7.1
Cc1ccc(N(CC2=NCCN2)c2cccc(O)c2)cc1	Adrenergic receptor alpha-2 (Rattus norvegicus) (UniProt P22086+P19328+P22909)	7.8
Cc1ccc(N(CC2=NCCN2)c2ccccc2)cc1	Adrenergic receptor alpha-2 (Rattus norvegicus) (UniProt P22086+P19328+P22909)	7.5
Cc1ccc(N(CC2=NCCN2)C2CCCCC2)cc1	Adrenergic receptor alpha-2 (Rattus norvegicus) (UniProt P22086+P19328+P22909)	6.5
Cc1ccc(N(C)CC2=NCCN2)cc1	Adrenergic receptor alpha-2 (Rattus norvegicus) (UniProt P22086+P19328+P22909)	7
Cc1ccc(NCC2=NCCN2)cc1	Adrenergic receptor alpha-2 (Rattus norvegicus) (UniProt P22086+P19328+P22909)	5.6

###

This document collects pKi values reported for Alpha-2A adrenergic receptor (Bos taurus, UniProt Q28838).
pKi: −log10 of the molar value.

Compound Structure String	pKi
Oc1cccc(NCC2=NCCN2)c1	8.15
Cc1ccc(N(C)CC2=NCCN2)cc1	8.48

###

target: Adrenergic receptor alpha-2 (Rattus norvegicus, UniProt P22086+P19328+P22909); assay: Agonistic activity against alpha alpha-2 adrenergic receptor in isolated, field -simulated vas deferens from rats; format: functional

Compound Structure String	Assayed System	EC50
CCN(CC1=NCCN1)c1ccc(C)cc1	Adrenergic receptor alpha-2 (Rattus norvegicus, UniProt P22086+P19328+P22909)	> 1000 nM
Cc1ccc(N(C)CC2=NCCN2)cc1	Adrenergic receptor alpha-2 (Rattus norvegicus, UniProt P22086+P19328+P22909)	> 2000 nM
Cc1ccc(N(CC2=NCCN2)c2ccccc2)cc1	Adrenergic receptor alpha-2 (Rattus norvegicus, UniProt P22086+P19328+P22909)	> 1000 nM
Cc1ccc(NCC2=NCCN2)cc1	Adrenergic receptor alpha-2 (Rattus norvegicus, UniProt P22086+P19328+P22909)	> 2000 nM
Oc1cccc(NCC2=NCCN2)c1	Adrenergic receptor alpha-2 (Rattus norvegicus, UniProt P22086+P19328+P22909)	74 nM
Cc1ccc(N(CC2=NCCN2)C2CCCCC2)cc1	Adrenergic receptor alpha-2 (Rattus norvegicus, UniProt P22086+P19328+P22909)	> 1000 nM
